src = PubChem BioAssay AID1745844

System: rodent lifetime carcinogenesis bioassay, tumor incidence TD50
Experiment: carcinogenic potency in animals, long-term in vivo studies, CPDB compilation (AID 1745844)
Conditions: mouse; strain Swiss; females; by gavage; site: liver; lesion: several types; types named in the paper; dosed 52 weeks; study length 122 weeks

record smiles: CCCCC/C=N/N(C)C=O
TD50: 19.9 mg/kg/day

---

Tested on: rodent lifetime carcinogenesis bioassay, tumor incidence TD50
Assay: carcinogenic potency in animals, long-term in vivo studies, CPDB compilation (AID 1745844)
Conditions: rat; strain ACI; males; i.p.; site: liver; lesion: liver-cell adenoma; dosed 56 weeks; study length 92 weeks

record smiles: C/C=C1/C[C@@H](C)[C@@](C)(O)C(=O)OC/C2=C/CN(C)CC[C@@H](OC1=O)C2=O
system under test: rodent lifetime carcinogenesis bioassay, tumor incidence TD50
TD50: 1.7 mg/kg/day

---

Test system: rodent lifetime carcinogenesis bioassay, tumor incidence TD50
Test: carcinogenic potency in animals, long-term in vivo studies, CPDB compilation (AID 1745844)
Details: rat; strain ACI; both sexes; in drinking water; site: liver; lesion: several types; types named in the paper; dosed 48 weeks; study length 68 weeks

compound: C=C/C1=C/C(C)C(C)(OC(C)=O)C(=O)OCC2=CC[N+]3(C)CCC(OC1=O)C23O (stereo unspecified)
TD50: 0.5 mg/kg/day

---

Test system: rodent lifetime carcinogenesis bioassay, tumor incidence TD50
Experiment: carcinogenic potency in animals, long-term in vivo studies, CPDB compilation (AID 1745844)
Settings: rat; strain Sprague-Dawley; females; i.p.; site: brain + cerebrum; lesion: olfactory neuroblastoma + mucinous adenocarcinoma; dosed 26 weeks; study length 86 weeks
measured parameter: TD50

record smiles: CNNCc1ccc(C(=O)NC(C)C)cc1
result: 0.416 mg/kg/day

---

System: rodent lifetime carcinogenesis bioassay, tumor incidence TD50
Experiment: carcinogenic potency in animals, long-term in vivo studies, CPDB compilation (AID 1745844)
Settings: mouse; strain B6C3F1; females; inhaled; site: uterus; lesion: squamous-cell carcinoma; dosed 103 weeks; study length 105 weeks
measured parameter: TD50 (mg/kg/day)

record smiles: CCBr
unit label: mg/kg/day
number: 4440

---

Tested on: rodent lifetime carcinogenesis bioassay, tumor incidence TD50
Experiment: carcinogenic potency in animals, long-term in vivo studies, CPDB compilation (AID 1745844)
Conditions: rat; strain Fischer 344; males; by gavage; site: pancreatic islets; lesion: islet-cell adenoma; dosed 103 weeks; study length 104 weeks
measured parameter: TD50

record smiles: O=CCC=O
system under test: rodent lifetime carcinogenesis bioassay, tumor incidence TD50
result: 80.5 mg/kg/day

---

System: rodent lifetime carcinogenesis bioassay, tumor incidence TD50
Test: carcinogenic potency in animals, long-term in vivo studies, CPDB compilation (AID 1745844)
Conditions: mouse; strain B6C3F1; females; in feed; site: mammary gland; lesion: all tumors; dosed 103 weeks; study length 104 weeks

record smiles: COC(=O)[C@H]1[C@H]2C[C@@H]3c4[nH]c5cc(OC)ccc5c4CCN3C[C@H]2C[C@@H](OC(=O)c2cc(OC)c(OC)c(OC)c2)[C@@H]1OC
TD50: 3.58 mg/kg/day

---

Tested on: rodent lifetime carcinogenesis bioassay, tumor incidence TD50
Assay: carcinogenic potency in animals, long-term in vivo studies, CPDB compilation (AID 1745844)
Settings: rat; strain Fischer 344; males; in feed; site: palate; lesion: squamous-cell carcinoma + squamous-cell papilloma; dosed 103 weeks; study length 104 weeks
measured parameter: TD50

record smiles: Nc1cc(S(=O)(=O)[O-])cc2cc(S(=O)(=O)[O-])c(N=Nc3ccc(-c4ccc(N=Nc5c(S(=O)(=O)[O-])cc6cc(S(=O)(=O)[O-])cc(N)c6c5O)c(O)c4)cc3O)c(O)c12.[Cu].[Cu].[Na+].[Na+].[Na+].[Na+]
measured parameter: TD50
result: 1570 mg/kg/day

---

Tested on: rodent lifetime carcinogenesis bioassay, tumor incidence TD50
Experiment: carcinogenic potency in animals, long-term in vivo studies, CPDB compilation (AID 1745844)
Conditions: rat; strain Fischer 344; males; by gavage; site: adrenal gland; lesion: pheochromocytoma; dosed 103 weeks; study length 104 weeks

compound: CCCCC(CC)COP(=O)(OCC(CC)CCCC)OCC(CC)CCCC (stereo unspecified)
TD50 / mg/kg/day: 5290

---

System: rodent lifetime carcinogenesis bioassay, tumor incidence TD50
Assay: carcinogenic potency in animals, long-term in vivo studies, CPDB compilation (AID 1745844)
Conditions: rat; strain Sprague-Dawley; males; inhaled; site: any site (literature study); lesion: several types; types named in the paper; dosed 52 weeks; study length 131 weeks

record smiles: C=CCl
TD50 (mg/kg/day): 950

---

Tested on: rodent lifetime carcinogenesis bioassay, tumor incidence TD50
Assay: carcinogenic potency in animals, long-term in vivo studies, CPDB compilation (AID 1745844)
Settings: rat; strain BD VI; females; by gavage; site: any site (literature study); lesion: benign tumor; dosed 72 weeks; study length 72 weeks
measured parameter: TD50 (mg/kg/day)

record smiles: CN(N=O)c1ccccn1
number: 3.05

---

Tested on: rodent lifetime carcinogenesis bioassay, tumor incidence TD50
Assay: carcinogenic potency in animals, long-term in vivo studies, CPDB compilation (AID 1745844)
Conditions: mouse; strain B6C3F1; males; in feed; site: liver; lesion: hepatocellular carcinoma; dosed 80 weeks; study length 89 weeks

compound: O=C1C2(Cl)C3(Cl)C4(Cl)C(Cl)(Cl)C5(Cl)C3(Cl)C1(Cl)C5(Cl)C24Cl (centres undefined)
TD50: 0.705 mg/kg/day
//
compound: ClC1=C(Cl)[C@]2(Cl)[C@H]3[C@H]([C@@H]4C=C[C@H]3C4)[C@@]1(Cl)C2(Cl)Cl
TD50: 0.861 mg/kg/day
//
compound: ClC1=C(Cl)C2(Cl)C3C(Cl)C(Cl)CC3C1(Cl)C2(Cl)Cl (centres undefined)
TD50: 2.48 mg/kg/day
//
compound: ClC1=C(Cl)[C@]2(Cl)[C@@H]3[C@@H]4C[C@@H]([C@H]5O[C@@H]45)[C@@H]3[C@@]1(Cl)C2(Cl)Cl
TD50: 1.35 mg/kg/day

---

Tested on: rodent lifetime carcinogenesis bioassay, tumor incidence TD50
Test: carcinogenic potency in animals, long-term in vivo studies, CPDB compilation (AID 1745844)
Conditions: rat; strain Fischer 344; females; in drinking water; site: liver; lesion: hyperplastic nodule; dosed 30 weeks; study length 123 weeks

record smiles: C=C/C=N/O
TD50 [mg/kg/day]: 41.9

---

Test system: rodent lifetime carcinogenesis bioassay, tumor incidence TD50
Assay: carcinogenic potency in animals, long-term in vivo studies, CPDB compilation (AID 1745844)
Details: rat; strain Sherman; both sexes; in drinking water; site: liver; lesion: hepatocellular carcinoma; dosed 104 weeks; study length 104 weeks
measured parameter: TD50

record smiles: C1COCCO1
result: 2500 mg/kg/day

---

System: rodent lifetime carcinogenesis bioassay, tumor incidence TD50
Assay: carcinogenic potency in animals, long-term in vivo studies, CPDB compilation (AID 1745844)
Details: rat; strain Wistar; females; in drinking water; site: liver; lesion: hepatoma; dosed 103 weeks; study length 104 weeks

compound: C/C=C1/C[C@@H](C)[C@](O)(CO)C(=O)OCC2=CC[N+]3([O-])CC[C@@H](OC1=O)[C@@H]23 (stereo partly specified)
TD50: 1.27 mg/kg/day

---

System: rodent lifetime carcinogenesis bioassay, tumor incidence TD50
Assay: carcinogenic potency in animals, long-term in vivo studies, CPDB compilation (AID 1745844)
Settings: mouse; strain Swiss; females; inhaled; site: mammary gland; lesion: several types; types named in the paper; dosed 52 weeks; study length 126 weeks

record smiles: C=C(Cl)Cl
TD50: 80.9 mg/kg/day

---

System: rodent lifetime carcinogenesis bioassay, tumor incidence TD50
Assay: carcinogenic potency in animals, long-term in vivo studies, CPDB compilation (AID 1745844)
Conditions: mouse; strain B6C3F1; females; oral dosing; site: liver; lesion: hepatoma; dosed 69 weeks; study length 69 weeks

compound: ClC1(Cl)C2(Cl)C3(Cl)C4(Cl)C(Cl)(Cl)C5(Cl)C3(Cl)C1(Cl)C5(Cl)C24Cl (stereo unspecified)
TD50 / mg/kg/day: 1.6

---

Test system: rodent lifetime carcinogenesis bioassay, tumor incidence TD50
Test: carcinogenic potency in animals, long-term in vivo studies, CPDB compilation (AID 1745844)
Conditions: mouse; strain B6AKF1; females; oral dosing; site: any site (literature study); lesion: several types; types named in the paper; dosed 82 weeks; study length 82 weeks
measured parameter: TD50 (mg/kg/day)

record smiles: CCOC(=O)C(O)(c1ccc(Cl)cc1)c1ccc(Cl)cc1
system under test: rodent lifetime carcinogenesis bioassay, tumor incidence TD50
number: 621

---

Tested on: rodent lifetime carcinogenesis bioassay, tumor incidence TD50
Assay: carcinogenic potency in animals, long-term in vivo studies, CPDB compilation (AID 1745844)
Conditions: rat; strain Fischer 344; females; by gavage; site: kidney; lesion: tubular-cell adenocarcinoma; dosed 102 weeks; study length 104 weeks
measured parameter: TD50

record smiles: ClC(Cl)Br
result: 272 mg/kg/day
